Listed here: items and their measured polymerase ribozyme fitness (log ratio).
B1: TPR 5TU (parent)
chain: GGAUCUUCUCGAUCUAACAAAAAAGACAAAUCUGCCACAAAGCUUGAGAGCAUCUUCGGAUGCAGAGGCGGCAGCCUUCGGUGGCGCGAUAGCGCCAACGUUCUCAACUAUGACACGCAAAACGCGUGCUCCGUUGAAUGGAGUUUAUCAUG

variants of: B1; assay: polymerase ribozyme fitness, log enrichment relative to wild type (log ratio); higher = more active; in vitro selection for triplet polymerase activity
Fewer inactive variants are shown than the library holds.
assay.readout: polymerase ribozyme fitness (log ratio)

>>> df
                                    mutation                            assay_readout     val
 0          G59U C69U C87G C105G C129A G141A  polymerase ribozyme fitness (log ratio)  ≤ -4.2
 1            A20U U44G G46A G59C C96A A115C  polymerase ribozyme fitness (log ratio)  ≤ -4.2
 2  U15C A20G A21U A39U C76U C85A C103A C108U  polymerase ribozyme fitness (log ratio)  ≤ -4.2
 3                                 U61A A73C  polymerase ribozyme fitness (log ratio)   -3.91
 4     A20U G48A G68U G83C C103G A138G G143C  polymerase ribozyme fitness (log ratio)  ≤ -4.2
 5                               U135A C149U  polymerase ribozyme fitness (log ratio)   -0.66
 6                           C36A G92A U101A  polymerase ribozyme fitness (log ratio)  ≤ -4.2
 7                 C32A C35U C69A C75U A150G  polymerase ribozyme fitness (log ratio)  ≤ -4.2
 8                 C14G A22U A26G A28C U134A  polymerase ribozyme fitness (log ratio)  ≤ -4.2
 9          C57G C76A C95U C129G A137C U144G  polymerase ribozyme fitness (log ratio)  ≤ -4.2
10  C14G A28U U55G A89U C96A G126A G128C G140C  polymerase ribozyme fitness (log ratio)  ≤ -4.2
